Literature roundup of Prothrombin (Homo sapiens) data, read-out Ki.
The reply should be a number in µM, with the unit left off.

[
  {
    "COMPOUND": "NCc1cccc(-n2nc(C(F)(F)F)cc2C(=O)Nc2ccc(-c3ccccc3S(N)(=O)=O)cc2F)c1",
    "MEASUREMENT_TARGET": "Prothrombin (Homo sapiens)",
    "Ki, µM": 2
  },
  {
    "COMPOUND": "CN1CC(C)(COc2ccc(C(=N)N)cc2)Oc2cc(NC(=O)C(Cc3ccccc3)C(=O)O)ccc21 (centres undefined)",
    "MEASUREMENT_TARGET": "Prothrombin (Homo sapiens)",
    "Ki, µM": 5.5
  },
  {
    "COMPOUND": "Cc1cc(OCC2CCN(C(=N)N)CC2)cc(OS(=O)(=O)c2ccccc2C(F)(F)F)c1",
    "MEASUREMENT_TARGET": "Prothrombin (Homo sapiens)",
    "Ki, µM": 0.014
  }
]

# next compound below
Value lookup for Ki; key = `N=C(N)c1ccc(NCCCCCCCNc2ccc(C(=N)N)cc2)cc1` 0.499
